meta.source: patent US20110092544A1

# System: Alternaria solani
# Experiment: Test E: tomato early blight, preventive spray on tomato seedlings, visual disease rating
# Assay type: in vivo
# Condition: 200 ppm, 100 = 100% disease control, 0 = no control
Parameter: Test E rating (% disease control). Scope: all listed entries.
Return type: number; implicit unit %.

See these solved cases before continuing.
- Compound: "COc1cc(OC)cc(-c2c(C3CCOCC3)cnc(C)c2-c2ccc(F)cc2)c1 [Compound 59]"
  System tested: "Alternaria solani"
  Unit string: "%"
  Test E rating (% disease control): 100
- Compound: "CCc1ncc(C(C)C)c(-c2cc(OC)cc(OC)c2)c1-c1ccccc1 [Compound 30]"
  System tested: "Alternaria solani"
  Unit string: "%"
  Test E rating (% disease control): 0
- Compound: "COc1cc(OC)cc(-c2c(C(C)=O)cnc(C)c2-c2c(F)cc(OC)cc2F)c1 [Compound 71]"
  System tested: "Alternaria solani"
  Unit string: "%"
  Test E rating (% disease control): 100
- Compound: "CCc1ncc(C(C)=O)c(-c2cc(OC)cc(OC)c2)c1-c1ccccc1 [Compound 27]"
  System tested: "Alternaria solani"
  Unit string: "%"
  Test E rating (% disease control): 92
- Compound: "CCOC(=O)c1cnc(C)c(-c2ccccc2)c1-c1cc(OC)c(OC)c(OC)c1 [Compound 6]"
  System tested: "Alternaria solani"
  Unit string: "%"
  Test E rating (% disease control): 0
- Compound: "COc1ccc(-c2c(C)ncc(C(C)(O)CO)c2-c2cc(OC)cc(OC)c2)cc1 (single isomer, unassigned) [Compound 85]"
  System tested: "Alternaria solani"
  Unit string: "%"
  Test E rating (% disease control): 0

Problem: Could you please provide reported Test E rating (% disease control) for CCOC(=O)c1cnc(CC)c(-c2ccccc2)c1-c1cc(OC)cc(OC)c1 [Compound 31] ? Thanks!
Solution: 0

Problem: Item Cc1ncc(-c2ccccc2F)c(-c2cc(OC(F)F)cc(OC(F)F)c2)c1-c1ccc(F)cc1 [Compound 101] : provide Test E rating (% disease control)
Solution: 0

----------
# Tested on: Erysiphe graminis f. sp. tritici
# Experiment: Test A: wheat powdery mildew, preventive spray on wheat seedlings, visual disease rating
# Format: in vivo
# Condition: 40 ppm (compound number followed by *)
# Description: General protocol for preparing test suspensions for Tests A-H: The test compounds were first dissolved in acetone in an amount equal to 3% of the final volume and then suspended at the desired concentration (in ppm) in acetone and purified water (50/50 mix) containing 250 ppm of the surfactant Trem® 014 (polyhydric alcohol esters). […]
Endpoint: Test A rating (% disease control) (%)
Answer with a number only, understood to be in %.

Problem: Give Test A rating (% disease control); test system Erysiphe graminis f. sp. tritici; compound `COc1cc(OC)c(Cl)c(-c2c(CCl)cnc(C)c2-c2c(F)cc(F)cc2F)c1`
Solution: 99

Problem: Please report Test A rating (% disease control) with Erysiphe graminis f. sp. tritici for item `COc1cc(OC)cc(-c2c(C3CCOCC3)cnc(C)c2-c2c(F)cc(F)cc2F)c1` .
Solution: 97

Problem: // fetch Test A rating (% disease control); item: CCC(O)c1cnc(C)c(-c2c(F)ccc(OC)c2F)c1-c1cc(OC)cc(OC)c1 (stereo not drawn) ; system: Erysiphe graminis f. sp. tritici
Solution: 93

Problem: System Erysiphe graminis f. sp. tritici. Read-out Test A rating (% disease control). Item `COc1cc(OC)cc(-c2c(C(C)C)cnc(C)c2-c2c(F)ccc(F)c2F)c1` . Report value.
Solution: 100

Problem: For Erysiphe graminis f. sp. tritici, give the measured Test A rating (% disease control) of the entry COc1cc(OC)cc(-c2c(C(C)O)cnc(C)c2-c2c(F)ccc(OC)c2F)c1 (stereo not drawn)
Solution: 94

Problem: Give Test A rating (% disease control); test system Erysiphe graminis f. sp. tritici; compound COc1cc(OC)cc(-c2c(C(C)=NO)cnc(C)c2-c2c(F)cc(F)cc2F)c1 (single isomer, unassigned) [Compound 117]
Solution: 93
